Target: proteasome chymotrypsin-like activity (CT-L), cell-based (Homo sapiens, UniProt P28074)
Construct: endogenous in cells
Sequence (P28074 60-263): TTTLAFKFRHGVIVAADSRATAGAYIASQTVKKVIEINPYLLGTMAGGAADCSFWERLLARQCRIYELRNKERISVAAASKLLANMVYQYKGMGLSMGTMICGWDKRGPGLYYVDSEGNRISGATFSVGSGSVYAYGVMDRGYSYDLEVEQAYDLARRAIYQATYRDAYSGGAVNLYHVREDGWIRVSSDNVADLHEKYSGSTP
Assay: Cell-based CT-L activity inhibition

{"compound": "CC(C)CC(NC(=O)C(CCc1ccccc1)NC(=O)CN(C)C)C(=O)NC(Cc1ccccc1)C(=O)NC(CC(C)C)C(=O)C1(C)CO1 (stereo not shown)", "IC50": "< 100 nM"}

----------
Target: 20S proteasome chymotrypsin-like activity (CT-L) (Homo sapiens, UniProt P20618+P28074)
Assay: 20S proteasome chymotrypsin-like (CT-L) activity inhibition
experimentalReadout: IC50

{"compound": "CC(C)CC(NC(=O)C(CCc1ccccc1)NC(=O)CN(C)C)C(=O)NC(Cc1ccccc1)C(=O)NC(CC(C)C)C(=O)C1(C)CO1 (stereo not shown) [compound 3]", "experimentalReadout": "IC50", "observedResult": "< 100 nM"}
